The entries below come with measured hERG current change (%, negative = inhibition) at 10uM values attached.
Molecular target: human ether-à-go-go-related gene (hERG) potassium channel (human, UniProt Q12809);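 also: peak tail current of the secondary pulse compared with the same well before compound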
Sequence (Q12809 whole entry, looked up): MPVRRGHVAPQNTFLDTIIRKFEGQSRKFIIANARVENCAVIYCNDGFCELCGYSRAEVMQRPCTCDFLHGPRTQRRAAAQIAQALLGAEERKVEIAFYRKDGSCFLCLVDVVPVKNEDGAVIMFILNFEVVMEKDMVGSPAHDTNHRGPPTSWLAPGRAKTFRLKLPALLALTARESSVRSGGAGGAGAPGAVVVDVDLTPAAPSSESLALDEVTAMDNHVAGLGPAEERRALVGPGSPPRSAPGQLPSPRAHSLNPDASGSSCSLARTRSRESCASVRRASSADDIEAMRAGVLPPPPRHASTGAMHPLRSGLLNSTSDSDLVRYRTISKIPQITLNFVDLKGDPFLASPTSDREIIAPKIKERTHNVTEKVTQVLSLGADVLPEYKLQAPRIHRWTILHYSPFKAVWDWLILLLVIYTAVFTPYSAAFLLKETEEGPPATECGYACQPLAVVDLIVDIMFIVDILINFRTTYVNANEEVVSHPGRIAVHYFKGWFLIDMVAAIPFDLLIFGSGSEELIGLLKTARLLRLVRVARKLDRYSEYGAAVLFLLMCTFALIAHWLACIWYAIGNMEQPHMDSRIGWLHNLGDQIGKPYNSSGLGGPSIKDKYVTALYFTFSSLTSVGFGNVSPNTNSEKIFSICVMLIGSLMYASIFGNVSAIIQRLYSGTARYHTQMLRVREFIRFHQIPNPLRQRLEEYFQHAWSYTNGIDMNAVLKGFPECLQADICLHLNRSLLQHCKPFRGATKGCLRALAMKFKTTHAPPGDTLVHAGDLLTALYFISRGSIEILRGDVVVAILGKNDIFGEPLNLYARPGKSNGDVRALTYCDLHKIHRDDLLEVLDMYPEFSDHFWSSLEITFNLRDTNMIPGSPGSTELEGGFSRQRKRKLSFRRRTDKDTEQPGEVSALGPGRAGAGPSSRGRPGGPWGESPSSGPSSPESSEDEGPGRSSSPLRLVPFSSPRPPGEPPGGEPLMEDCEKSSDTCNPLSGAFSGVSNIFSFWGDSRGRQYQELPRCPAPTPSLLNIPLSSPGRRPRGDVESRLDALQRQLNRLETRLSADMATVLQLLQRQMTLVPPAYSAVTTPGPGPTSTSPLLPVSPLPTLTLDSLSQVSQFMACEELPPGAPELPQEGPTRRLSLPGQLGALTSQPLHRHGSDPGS
Test: primary screen, population patch clamp on CHO cells stably expressing hERG; higher = less effect of the substance
Hit rate of the full screen: of about 310,000 compounds, about 14,000 (4.5%) showed an effect of 50% or more. The effect is printed as a negative number. This is one part of a sample in which strong results are shown more often than they occur.
recorded metric: hERG current change (%, negative = inhibition) at 10uM (%)

>>> measured("c1ccc2c(c1)CC1(CCCC1)n1nnnc1-2")
-19.4
>>> measured("CCOc1cc(-c2cc(N)n[nH]2)cc(OCC)c1OCC")
14.6
>>> measured("CSc1ccc(CNC2CC2)cc1.Cl")
-7.3
>>> measured("Cc1cc(C)cc(OCC(=O)Nc2ccc(N3CCCC3)cc2)c1")
11.9
>>> measured("CC(C)c1ccccc1NC(=O)COC(=O)Cc1c[nH]c2ccccc12")
7.28
>>> measured("O=C(O)CNC1=NCCCCC1")
0.366

---

Biological target: human ether-à-go-go-related gene (hERG) potassium channel (human, UniProt Q12809);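 also: peak tail current of the secondary pulse compared with the same well before compound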
Test: primary screen, population patch clamp on CHO cells stably expressing hERG; higher = less effect of the substance
In all, about 310,000 compounds went through this assay and about 14,000 (4.5%) showed an effect of 50% or more. Effects have a minus sign here. Many of the other results were omitted from the sample, so strong results are more common in it than they were.
# hERG current change (%, negative = inhibition) at 10uM annotations
recorded metric: hERG current change (%, negative = inhibition) at 10uM

>>> measured("Cc1ccccc1OCC(=O)OCC(=O)NCc1cccs1")
"1.72%"
>>> measured("Cl.c1ccc(CN2CCN(c3nc(N4CCOCC4)c4ccccc4n3)CC2)cc1")
"-70.3%"
>>> measured("Cl.c1ccc2c(N3CCOCC3)nc(N3CCOCC3)nc2c1")
"-19.4%"
>>> measured("CCN(CC)c1nc(N2CCOCC2)nc2ccccc12.Cl")
"-48.3%"
>>> measured("COc1cc(C#N)ccc1OCC(=O)Nc1ccc(C)c(S(=O)(=O)N2CCOCC2)c1")
"-36.1%"
>>> measured("Cc1ccc(OCCN2CCN(c3nc(NCc4ccco4)c4ccccc4n3)CC2)cc1")
"-62.6%"
>>> measured("Cc1cc(Cl)ccc1OCC(=O)NNC(=O)c1cnccn1")
"11.6%"
>>> measured("COc1ccc(N(C)S(=O)(=O)c2ccc(Cl)c(C(=O)NCC(C)(C)N3CCOCC3)c2)cc1")
"-41.5%"
>>> measured("CCN1CCN(c2nc(NCCO)c3ccccc3n2)CC1.Cl")
"-16.7%"
>>> measured("Cc1ccc(-c2nc(NCc3ccco3)c3ccccc3n2)cc1")
"4.65%"

---

Biological target: human ether-à-go-go-related gene (hERG) potassium channel (human, UniProt Q12809);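 also: peak tail current of the secondary pulse compared with the same well before compound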
Experiment: primary screen, population patch clamp on CHO cells stably expressing hERG; higher = less effect of the substance
Hit rate of the full screen: of about 310,000 compounds, about 14,000 (4.5%) showed an effect of 50% or more. Effects have a minus sign here. This excerpt belongs to a sample that is enriched for strong results.
Here the recorded hERG current change (%, negative = inhibition) at 10uM is given for each entry.
recorded metric: hERG current change (%, negative = inhibition) at 10uM (%)

>>> measured("Cc1ccccc1Cn1c2ccccc2c2cnn(CC(=O)NCCCN3CCOCC3)c(=O)c21")
-18.6
>>> measured("O=C(Cn1ncc2c3ccccc3n(Cc3ccccc3)c2c1=O)NCCCN1CCOCC1")
-45.2
>>> measured("Cc1ccc(C)c(Cn2c3ccccc3c3cnn(CC(=O)NCCN4CCOCC4)c(=O)c32)c1")
-45
>>> measured("Cc1cc(C)c(Cn2c3ccccc3c3cnn(CC(=O)NCCN4CCOCC4)c(=O)c32)c(C)c1")
2.31
>>> measured("O=C(Cn1ncc2c3ccccc3n(Cc3ccccc3F)c2c1=O)NCCN1CCOCC1")
-55.2
>>> measured("Cc1cc(Cl)ccc1C(=O)C1CCCN(C(=O)c2nonc2C)C1 (stereo not drawn)")
-26.3
>>> measured("COc1ccc(C(=O)C2CCCN(C3CSCCSC3)C2)c(C)c1 (stereo not drawn)")
-13
>>> measured("CCN(C(=O)c1cc2c(=O)n3ccccc3nc2n1C)C1CCCCC1")
6.65
>>> measured("O=C(NNC(=O)C1CCN(c2ncccn2)CC1)c1ccc(Cl)cc1")
0.113
